SYSTEM_TESTED: NGF (nerve growth factor) (Homo sapiens, UniProt P01138 P01138:122-241)
Sequence (P01138 122-241, one chain of several): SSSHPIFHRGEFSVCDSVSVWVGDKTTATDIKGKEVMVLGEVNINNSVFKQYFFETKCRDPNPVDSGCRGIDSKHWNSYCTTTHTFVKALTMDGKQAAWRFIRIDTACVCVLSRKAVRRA
ASSAY_COMMENT: cell_activity; neurite; TF-1 0.296
APPLIED_CONDITIONS: tags: R&D Systems; chain copies: 2
TEST_READOUT: IC50 (nM)
Give bare numbers, in nM.

Determine its reported IC50: GGGUCCUGACAAAGAGUUUCCGUCUCGUUGUCUGUUACCC (ssRNA, 2'-F C/U, dA, 2'-OH G) [SEQ ID NO: 114] 0.363
